Where do these numbers come from? They come from ChEMBL document CHEMBL5053527.

# assay target: Cannabinoid receptor 1 (Homo sapiens)
# protocol description: Positive allosteric modulation of human CB1 receptor expressed in CHO-K1 cells assessed as inhibition of forskolin-induced cAMP production by measuring maximum efficacy incubated for 30 mins in presence of forskolin by HitHunter chemiluminescence based assay relative to control
# Assay type: functional, cell-based
# reported Emax; entries follow
quantity measured: Emax

> print(dat)
                                   compound  quantity.measured  measured
1  O=[N+]([O-])CC(c1ccccc1)c1c(-c2c[nH]c3ccccc23)[nH]c2ccccc12 (centres undefined)               Emax      -71%
2  O=[N+]([O-])CC(c1ccccc1)c1c(-c2cscn2)[nH]c2ccccc12 (centres undefined)               Emax       38%
3  CC(C)(C)OC(=O)n1c(-c2[nH]c3ccccc3c2C(C[N+](=O)[O-])c2ccccc2)cc2ccccc21 (centres undefined)               Emax        0%
4  O=[N+]([O-])CC(c1ccccc1)c1c(-c2ccn[nH]2)[nH]c2ccccc12 (stereo in doubt; 15g)               Emax        0%

---

# assay target: Cannabinoid receptor 1 (Homo sapiens, UniProt P21554)
# Sequence (P21554 whole entry): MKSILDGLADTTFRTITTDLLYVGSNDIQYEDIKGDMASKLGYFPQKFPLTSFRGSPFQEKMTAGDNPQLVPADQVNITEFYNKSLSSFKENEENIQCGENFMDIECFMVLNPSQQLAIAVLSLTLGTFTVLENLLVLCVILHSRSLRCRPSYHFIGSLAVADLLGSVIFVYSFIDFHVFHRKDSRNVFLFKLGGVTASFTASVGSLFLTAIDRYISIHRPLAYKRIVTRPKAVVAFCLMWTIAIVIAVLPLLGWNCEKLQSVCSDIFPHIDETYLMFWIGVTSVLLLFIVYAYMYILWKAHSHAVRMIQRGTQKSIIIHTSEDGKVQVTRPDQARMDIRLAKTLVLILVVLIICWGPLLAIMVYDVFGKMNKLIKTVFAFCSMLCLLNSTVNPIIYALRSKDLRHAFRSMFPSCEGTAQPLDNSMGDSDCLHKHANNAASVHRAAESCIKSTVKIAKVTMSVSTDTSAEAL
# protocol description: Positive allosteric modulation of human CB1 receptor expressed in CHO-K1 cells assessed as beta-arrestin 2 […] by measuring maximum efficacy incubated for 90 mins by PathHunter chemiluminescence based assay relative to control
# Assay type: cell-based
Range-based classes on measured Emax: low value: < 3%; medium value: ≥ 3% and < 10%; high value: ≥ 10%

> print(dat)
                                   compound         label
1  O=[N+]([O-])CC(c1ccccc1)c1c(-c2ccoc2)[nH]c2ccccc12 (centres undefined)    high value
2  O=[N+]([O-])CC(c1ccccc1)c1c(-c2cc3ccccc3s2)[nH]c2ccccc12 (centres undefined)    high value
3  O=[N+]([O-])CC(c1ccccc1)c1c(-c2cc3ccccc3[nH]2)[nH]c2ccccc12 (centres undefined)  medium value
4  O=[N+]([O-])CC(c1ccccc1)c1c(-c2ccco2)[nH]c2ccccc12 (centres undefined)    high value
5  O=[N+]([O-])CC(c1ccccc1)c1c(-c2c[nH]c3ccccc23)[nH]c2ccccc12 (centres undefined)     low value
6  O=[N+]([O-])CC(c1ccccc1)c1c(-c2nccs2)[nH]c2ccccc12 (centres undefined)     low value
7  O=[N+]([O-])CC(c1ccccc1)c1c(-c2ccn[nH]2)[nH]c2ccccc12 (stereo in doubt; 15g)     low value
8  O=[N+]([O-])CC(c1ccccc1)c1c(-c2cncs2)[nH]c2ccccc12 (centres undefined)  medium value
9  O=[N+]([O-])CC(c1ccccc1)c1c(-c2ccc[nH]2)[nH]c2ccccc12 (centres undefined)    high value

---

Form field: EC50 (one value per entry).
# assay target: UniProt P21554
# protocol description: Positive allosteric modulation of human CB1 receptor expressed in CHO-K1 cells assessed as inhibition of forskolin-induced cAMP production incubated for 30 mins in presence of forskolin by HitHunter chemiluminescence based assay
# Assay type: functional, cell-based
quantity measured: EC50 (nM)

> print(dat)
                                   compound  limit.sign  measured
1  O=[N+]([O-])CC(c1ccccc1)c1c(-c2cn[nH]c2)[nH]c2ccccc12 (stereo not given)           >     10000
2  O=[N+]([O-])CC(c1ccccc1)c1c(-c2cccs2)[nH]c2ccccc12 (stereo not given)           =       170
3  O=[N+]([O-])CC(c1ccccc1)c1c(-c2ccn[nH]2)[nH]c2ccccc12 (stereo in doubt; 15g)           >     10000
4  O=[N+]([O-])CC(c1ccccc1)c1c(-c2ccc[nH]2)[nH]c2ccccc12 (stereo not given)           =       220
5  O=[N+]([O-])CC(c1ccccc1)c1c(-c2nccs2)[nH]c2ccccc12 (stereo not given)           =       790

---

# protocol description: in vitro
# experimental conditions: human, liver microsomes
quantity measured: microsomal CLint at 0.25 h, 1 µM (µL/min/mg)

> print(dat)
                                   compound  measured
1  O=[N+]([O-])CC(c1ccccc1)c1c(-c2ccsc2)[nH]c2ccccc12 (configuration not stated)       111
2  O=[N+]([O-])CC(c1ccccc1)c1c(-c2cccs2)[nH]c2ccccc12 (configuration not stated)       115

---

# protocol description: in vitro
# experimental conditions: rat, liver microsomes
quantity measured: microsomal CLint at 0.25 h, 1 µM (µL/min/mg)

> print(dat)
                                   molecule                 quantity.measured  measured
1  O=[N+]([O-])CC(c1ccccc1)c1c(-c2ccsc2)[nH]c2ccccc12 (configuration not stated)  microsomal CLint at 0.25 h, 1 µM       489
2  O=[N+]([O-])CC(c1ccccc1)c1c(-c2cccs2)[nH]c2ccccc12 (configuration not stated)  microsomal CLint at 0.25 h, 1 µM       595

---

# assay target: Cannabinoid receptor 1 (Homo sapiens)
# protocol description: Positive allosteric modulation of human CB1 receptor expressed in CHO-K1 cells assessed as beta-arrestin 2 recruitment incubated for 90 mins by PathHunter chemiluminescence based assay
# Type: cell-based
quantity measured: EC50

> print(dat)
                                   compound    measured
1  CC(C)(C)OC(=O)n1c(-c2[nH]c3ccccc3c2C(C[N+](=O)[O-])c2ccccc2)cc2ccccc21 (centres undefined)  > 10000 nM
2  O=[N+]([O-])CC(c1ccccc1)c1c(-c2cncs2)[nH]c2ccccc12 (centres undefined)  > 10000 nM
3  O=[N+]([O-])CC(c1ccccc1)c1c(-c2ccc[nH]2)[nH]c2ccccc12 (centres undefined)  > 10000 nM
4  O=[N+]([O-])CC(c1ccccc1)c1c(-c2cc3ccccc3s2)[nH]c2ccccc12 (centres undefined)  > 10000 nM
5  O=[N+]([O-])CC(c1ccccc1)c1c(-c2ccsc2)[nH]c2ccccc12 (centres undefined)      320 nM
6  O=[N+]([O-])CC(c1ccccc1)c1c(-c2ccco2)[nH]c2ccccc12 (centres undefined)     2100 nM
7  O=[N+]([O-])CC(c1ccccc1)c1c(-c2nccs2)[nH]c2ccccc12 (centres undefined)  > 10000 nM
8  O=[N+]([O-])CC(c1ccccc1)c1c(-c2ccoc2)[nH]c2ccccc12 (centres undefined)   > 1000 nM
9  O=[N+]([O-])CC(c1ccccc1)c1c(-c2cccs2)[nH]c2ccccc12 (centres undefined)      110 nM

---

# assay target: Cannabinoid receptor 1 (Homo sapiens, UniProt P21554)
# protocol description: Positive allosteric modulation of human CB1 receptor expressed in CHO-K1 cells assessed as beta-arrestin 2 […] by measuring maximum efficacy incubated for 90 mins by PathHunter chemiluminescence based assay relative to control
# Format: cell-based
# Lookup of reported Emax keyed by entry
quantity measured: Emax (%)

> print(dat)
                                   molecule  units.text  measured
1  CC(C)(C)OC(=O)n1c(-c2[nH]c3ccccc3c2C(C[N+](=O)[O-])c2ccccc2)cc2ccccc21 (stereo unspecified)           %         0
2  O=[N+]([O-])CC(c1ccccc1)c1c(-c2cn[nH]c2)[nH]c2ccccc12 (stereo unspecified)           %       3.5
3  CC(C)[Si](C(C)C)(C(C)C)n1ccc(-c2[nH]c3ccccc3c2C(C[N+](=O)[O-])c2ccccc2)c1 (stereo unspecified)           %      -4.5
4  O=[N+]([O-])CC(c1ccccc1)c1c(-c2cc3ccccc3o2)[nH]c2ccccc12 (stereo unspecified)           %       9.5
5  O=[N+]([O-])CC(c1ccccc1)c1c(-c2cc[nH]c2)[nH]c2ccccc12 (stereo unspecified)           %      -1.5
6  O=[N+]([O-])CC(c1ccccc1)c1c(-c2ccn[nH]2)[nH]c2ccccc12 (stereo in doubt; 15h)           %      0.76

---

# key: entry, value: pEC50
# assay target: Cannabinoid receptor 1 (Homo sapiens, UniProt P21554)
# protocol description: Positive allosteric modulation of human CB1 receptor expressed in CHO-K1 cells assessed as inhibition of forskolin-induced cAMP production incubated for 30 mins in presence of forskolin by HitHunter chemiluminescence based assay
# Format: functional, cell-based
pEC50: −log10 of the molar value.
quantity measured: pEC50

> print(dat)
                                    molecule  limit.sign  measured
 1  CC(C)[Si](C(C)C)(C(C)C)n1ccc(-c2[nH]c3ccccc3c2C(C[N+](=O)[O-])c2ccccc2)c1 (configuration not stated)           =      6.01
 2  O=[N+]([O-])CC(c1ccccc1)c1c(-c2c[nH]c3ccccc23)[nH]c2ccccc12 (configuration not stated)           <      5.00
 3  O=[N+]([O-])CC(c1ccccc1)c1c(-c2cc3ccccc3[nH]2)[nH]c2ccccc12 (configuration not stated)           <      5.00
 4  O=[N+]([O-])CC(c1ccccc1)c1c(-c2cscn2)[nH]c2ccccc12 (configuration not stated)           =      5.92
 5  O=[N+]([O-])CC(c1ccccc1)c1c(-c2cc[nH]c2)[nH]c2ccccc12 (configuration not stated)           <      5.00
 6  O=[N+]([O-])CC(c1ccccc1)c1c(-c2ccco2)[nH]c2ccccc12 (configuration not stated)           =      6.89
 7  O=[N+]([O-])CC(c1ccccc1)c1c(-c2ccsc2)[nH]c2ccccc12 (configuration not stated)           =      7.06
 8  O=[N+]([O-])CC(c1ccccc1)c1c(-c2ccoc2)[nH]c2ccccc12 (configuration not stated)           =      7.00
 9  O=[N+]([O-])CC(c1ccccc1)c1c(-c2cc3ccccc3o2)[nH]c2ccccc12 (configuration not stated)           =      6.26
10  CC(C)(C)OC(=O)n1c(-c2[nH]c3ccccc3c2C(C[N+](=O)[O-])c2ccccc2)cc2ccccc21 (configuration not stated)           <      5.00
11  O=[N+]([O-])CC(c1ccccc1)c1c(-c2cncs2)[nH]c2ccccc12 (configuration not stated)           =      5.82
12  O=[N+]([O-])CC(c1ccccc1)c1c(-c2cc3ccccc3s2)[nH]c2ccccc12 (configuration not stated)           =      6.82
